# study-target: human mGluR5A (Homo sapiens)
# test-description: mGluR5 FLIPR Assay
# test-settings: positive modulator activity; HEK293 (ZF) cells with human mGluR5A and rat GLAST; Ca++ response to ~EC10 glutamate
# Description: HEK293 (ZF) cells stably transfected with human mGluR5A (pIRES neo) and the rat glutamate-aspartate transporter (GLAST; pIRES puro) are grown in a monolayer culture at 37° C. in 5% CO2 and fed with Minimum Essential Medium (MEM) supplemented with 10% dialysed fetal bovine serum. […] Test compounds are incubated with cells in the presence of dye for 10 minutes prior to being read on the FLIPR platform (Molecular Devices). […]
reported-metric: EC50

# compound, study-target, EC50
rows = [
    ("O=C1N[C@H](c2cncc(C#Cc3ccccc3)c2)[C@@H](c2ccncn2)O1 (single isomer, unassigned)", "human mGluR5A (Homo sapiens)", "< 100 nM"),
    ("O=C1N[C@H](c2cccc(C#Cc3ccccc3)n2)[C@@H](c2ccc(F)cc2F)O1 (single isomer, unassigned)", "human mGluR5A (Homo sapiens)", "< 100 nM"),
    ("O=C1N[C@H](c2cncc(C#Cc3cnccn3)c2)[C@@H](c2cccc(F)c2)O1", "human mGluR5A (Homo sapiens)", "< 100 nM"),
    ("O=C1N[C@@H](c2cncc(C#Cc3ccccc3)c2)[C@H](c2ncco2)O1", "human mGluR5A (Homo sapiens)", "> 1000 nM"),
    ("COc1cccc([C@H]2OC(=O)N[C@@H]2c2cccc(C#Cc3cnccc3C)c2)c1", "human mGluR5A (Homo sapiens)", "> 1000 nM"),
]

Entry under test: O=C1N[C@H](c2cccc(C#Cc3cccnc3)c2)[C@@H](c2cnccn2)O1 . Its EC50 was > 1000 nM

For O=C1N[C@H](c2nccc(C#Cc3ccccc3)n2)[C@@H](c2cccc(F)c2)O1 [Example 273] the compound record lists EC50 as > 3000 nM

Value of EC50 reported for the compound COc1cccc([C@H]2OC(=O)N[C@@H]2c2cccc(C#Cc3cnccc3OC)c2)c1 is > 1000 nM

Lab note: COc1cccc([C@@H]2OC(=O)N[C@H]2c2cccc(C#Cc3ccc(C(F)(F)F)cc3)c2)c1 (stereo in doubt) gave EC50 of > 1000 nM

Reported EC50 of COc1cccc([C@H]2OC(=O)N[C@@H]2c2cccc(C#Cc3cccc(C(F)(F)F)c3)c2)c1 : > 1000 nM

Per the record, O=C1N[C@H](c2cc(C#Cc3ccc(F)cc3)ccn2)[C@@H](c2ccc(F)cc2)O1 (single isomer, unassigned) has EC50 of < 100 nM

Form: compound = N#Cc1cccc(C#Cc2cncc([C@@H]3NC(=O)O[C@H]3c3cc(F)cc(F)c3)c2)c1 ; EC50 = > 1000 nM

* * *

The reader will find reported EC50 values listed item by item below.
# study-target: human mGluR5A (Homo sapiens, UniProt P41594)
# Sequence (P41594 21-1180 isoform P41594-2): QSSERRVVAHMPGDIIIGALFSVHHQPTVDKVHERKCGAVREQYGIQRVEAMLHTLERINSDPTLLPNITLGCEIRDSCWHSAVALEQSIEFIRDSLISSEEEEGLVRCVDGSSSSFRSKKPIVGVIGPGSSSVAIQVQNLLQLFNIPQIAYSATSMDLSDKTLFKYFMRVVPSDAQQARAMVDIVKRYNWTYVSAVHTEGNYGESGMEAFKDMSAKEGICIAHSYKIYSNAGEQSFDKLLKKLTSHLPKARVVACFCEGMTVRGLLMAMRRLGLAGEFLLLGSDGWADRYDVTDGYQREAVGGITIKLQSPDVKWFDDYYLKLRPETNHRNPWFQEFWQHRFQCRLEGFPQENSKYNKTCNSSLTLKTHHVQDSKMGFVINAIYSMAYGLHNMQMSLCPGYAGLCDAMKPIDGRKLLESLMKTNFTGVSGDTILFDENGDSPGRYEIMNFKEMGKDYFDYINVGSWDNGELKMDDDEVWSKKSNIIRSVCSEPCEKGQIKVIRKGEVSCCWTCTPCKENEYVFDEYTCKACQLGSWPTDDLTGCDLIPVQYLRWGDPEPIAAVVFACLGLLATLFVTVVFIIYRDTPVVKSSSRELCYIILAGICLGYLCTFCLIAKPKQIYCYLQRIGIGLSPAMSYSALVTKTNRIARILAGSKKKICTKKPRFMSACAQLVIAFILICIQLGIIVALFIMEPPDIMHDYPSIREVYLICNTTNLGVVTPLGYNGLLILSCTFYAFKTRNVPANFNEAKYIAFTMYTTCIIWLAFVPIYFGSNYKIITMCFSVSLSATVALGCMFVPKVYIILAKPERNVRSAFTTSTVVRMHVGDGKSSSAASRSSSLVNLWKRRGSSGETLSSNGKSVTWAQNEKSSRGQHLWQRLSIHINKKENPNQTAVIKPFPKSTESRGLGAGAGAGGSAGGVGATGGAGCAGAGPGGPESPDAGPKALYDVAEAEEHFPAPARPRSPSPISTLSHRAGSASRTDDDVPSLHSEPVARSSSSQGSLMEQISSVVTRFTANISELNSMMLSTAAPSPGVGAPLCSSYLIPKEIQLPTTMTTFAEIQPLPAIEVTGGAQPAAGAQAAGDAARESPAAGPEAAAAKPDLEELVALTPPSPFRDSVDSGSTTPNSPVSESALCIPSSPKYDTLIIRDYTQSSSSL
# test-description: mGluR5 FLIPR Assay
# test-settings: positive modulator activity; HEK293 (ZF) cells with human mGluR5A and rat GLAST; Ca++ response to ~EC10 glutamate

# molecule, study-target, EC50
rows = [
    ("O=C1N[C@H](c2cncc(C#Cc3cccc(Cl)c3)c2)[C@@H](c2cccc(F)c2F)O1", "human mGluR5A (Homo sapiens, UniProt P41594)", "> 1000 nM"),
    ("O=C1N[C@H](c2ccnc(C#Cc3ccccc3)n2)[C@@H](c2cccc(F)c2)O1", "human mGluR5A (Homo sapiens, UniProt P41594)", "< 100 nM"),
    ("O=C1N[C@@H](c2cccc(C#Cc3ccccc3)c2)[C@H](c2cccs2)O1 (single isomer, unassigned) [Example 105]", "human mGluR5A (Homo sapiens, UniProt P41594)", "> 30000 nM"),
    ("O=C1N[C@@H](c2cccc(C#Cc3ccccc3)n2)[C@H](c2cc(F)cc(F)c2)O1 (single isomer, unassigned)", "human mGluR5A (Homo sapiens, UniProt P41594)", "> 1000 nM"),
]

Lab note: next molecule to report on.
Measured EC50 (human mGluR5A (Homo sapiens, UniProt P41594)), entry O=C1N[C@@H](c2cccc(C#Cc3ccccc3)c2)[C@H](c2cccnn2)O1 : > 1000 nM

* * *

# pEC50 per record follows
# study-target: human mGluR5A (Homo sapiens, UniProt P41594)
# test-description: mGluR5 FLIPR Assay
# test-settings: positive modulator activity; HEK293 (ZF) cells with human mGluR5A and rat GLAST; Ca++ response to ~EC10 glutamate
pEC50: −log10 of the molar value.

Before answering, review these 5 worked examples.
# molecule, reported-metric, test-value
rows = [
    ("N#Cc1ccc(C#Cc2cncc([C@H]3NC(=O)O[C@@H]3c3cc(F)ccc3F)c2)cc1", "pEC50", "< 6.00"),
    ("O=C1N[C@H](c2cncc(C#Cc3ccccc3)c2)[C@H](c2ccncn2)O1 (single isomer, unassigned)", "pEC50", "> 7.00"),
    ("COc1cccc([C@@H]2OC(=O)N[C@H]2c2cccc(C#Cc3ccc(F)cc3F)c2)c1", "pEC50", "< 6.00"),
    ("Cc1ccc([C@H]2OC(=O)N[C@@H]2c2cccc(C#Cc3ccccc3)c2)cc1", "pEC50", "> 7.00"),
    ("O=C1N[C@H](c2cc(C#Cc3cccnc3)cnc2F)[C@@H](c2cccc(F)c2)O1", "pEC50", "> 7.00"),
]

Kindly consider the entry below.
The measured pEC50 associated with O=C1NC(c2cccc(C#Cc3ccccc3)c2)C(c2cccc(O)c2)O1 (stereo not drawn) reads > 7.00

* * *

# study-target: human mGluR5A (Homo sapiens, UniProt P41594)
# test-description: mGluR5 FLIPR Assay
# test-settings: positive modulator activity; HEK293 (ZF) cells with human mGluR5A and rat GLAST; Ca++ response to ~EC10 glutamate
pEC50: −log10 of the molar value.
reported-metric: pEC50

// known answers, use as guide
# molecule, pEC50
rows = [
    ("O=C1N[C@@H](c2cccc(C#Cc3ccccc3)c2)[C@@H](c2ccccc2)O1 [Example 97]", "< 6.00"),
    ("O=C1N[C@H](c2cncc(C#Cc3ccccc3)c2)[C@@H](c2c(F)cccc2F)O1 [Example 278]", "< 6.00"),
    ("O=C1N[C@H](c2cc(C#Cc3ccccc3F)ccn2)[C@@H](c2ccc(F)cc2)O1 (single isomer, unassigned) [Example 353]", "> 7.00"),
    ("O=C1N[C@H](c2cncc(C#Cc3ccccc3)c2)[C@H](c2ccnnc2)O1 (single isomer, unassigned) [Example 324]", "> 7.00"),
    ("COc1ccccc1[C@@H]1OC(=O)N[C@H]1c1cncc(C#Cc2ccccc2)c1 (single isomer, unassigned) [Example 333]", "< 6.00"),
]

Value of pEC50 reported for the molecule COc1cccc([C@H]2OC(=O)N[C@@H]2c2cccc(C#Cc3ccncn3)c2)c1 [Example 74] is < 4.52

For O=C1N[C@@H](c2cccc(C#Cc3ccccc3)c2)[C@H](c2ccncn2)O1 [Example 238] the molecule record lists pEC50 as < 6.00

The recorded pEC50 for entry COc1cccc([C@H]2OC(=O)N[C@@H]2c2cccc(C#Cc3ccc(F)cc3)n2)c1 [Example 7] equals < 6.00

Lab note: measured pEC50 of O=C1N[C@@H](c2cncc(C#Cc3ccccc3)c2)[C@H](c2ccccc2Cl)O1 (single isomer, unassigned) [Example 363] was > 7.00

Lookup result for O=C1N[C@H](c2nccc(C#Cc3ccccc3)n2)[C@@H](c2cccc(F)c2)O1 (racemic) [Example 272] ; measured pEC50: < 6.00

Item: O=C1N[C@H](c2cncc(C#Cc3ccccn3)c2)[C@@H](c2ccc(F)cc2F)O1 [Example 183] | pEC50: > 7.00

Item: COc1cccc([C@H]2OC(=O)N[C@@H]2c2cccc(C#Cc3cccc(Cl)c3)c2)c1 [Example 262] | pEC50: 6.00 to 7.00

The value of pEC50 measured for the molecule COC(=O)c1ccc(C#Cc2cccc([C@H]3NC(=O)O[C@@H]3c3cccc(OC)c3)c2)cc1 [Example 266] turned out to be 6.00 to 7.00

Reported pEC50 of O=C1N[C@H](c2cncc(C#Cc3ccccn3)c2)[C@@H](c2cc(F)cc(F)c2)O1 [Example 177] : < 6.00

Noted for COc1cccc([C@H]2OC(=O)N[C@@H]2c2cccc(C#Cc3ccc(C#N)nc3)c2)c1 [Example 70] : its pEC50 reads < 6.00

* * *

# study-target: UniProtKB P41594
# test-description: mGluR5 FLIPR Assay
# test-settings: positive modulator activity; HEK293 (ZF) cells with human mGluR5A and rat GLAST; Ca++ response to ~EC10 glutamate
Catalogue of molecules with associated EC50

Past entries and their recorded results:
# molecule, EC50
rows = [
    ("COc1cccc([C@H]2OC(=O)N[C@@H]2c2cccc(C#Cc3cc(F)ccn3)c2)c1", "< 100 nM"),
    ("COc1cccc([C@H]2OC(=O)N[C@@H]2c2cccc(C#Cc3ccccc3OC)c2)c1", "100 to 1000 nM"),
    ("O=C1N[C@H](c2cncc(C#Cc3ccccn3)c2)[C@@H](c2ccc(F)cc2)O1", "< 100 nM"),
]

Now let's try a different one.
Documented EC50 of O=C1N[C@@H](c2cccc(C#Cc3ccccc3)n2)[C@H](c2cccnc2)O1 (single isomer, unassigned) : > 1000 nM
